List of Kb values.
target: rat dorsal aorta (Rattus norvegicus, UniProt P22002); construct: from tissue; host or cells: rat dorsal aorta (smooth muscle); assay: Calcium blockade in rat dorsal aorta (calcium activity in smooth muscle); type: cell-based; details: negative logarithm of molar concentration giving dose ratio of 2, read-out: Calcium (pA2) (converted)
Sequence (P22002 whole entry): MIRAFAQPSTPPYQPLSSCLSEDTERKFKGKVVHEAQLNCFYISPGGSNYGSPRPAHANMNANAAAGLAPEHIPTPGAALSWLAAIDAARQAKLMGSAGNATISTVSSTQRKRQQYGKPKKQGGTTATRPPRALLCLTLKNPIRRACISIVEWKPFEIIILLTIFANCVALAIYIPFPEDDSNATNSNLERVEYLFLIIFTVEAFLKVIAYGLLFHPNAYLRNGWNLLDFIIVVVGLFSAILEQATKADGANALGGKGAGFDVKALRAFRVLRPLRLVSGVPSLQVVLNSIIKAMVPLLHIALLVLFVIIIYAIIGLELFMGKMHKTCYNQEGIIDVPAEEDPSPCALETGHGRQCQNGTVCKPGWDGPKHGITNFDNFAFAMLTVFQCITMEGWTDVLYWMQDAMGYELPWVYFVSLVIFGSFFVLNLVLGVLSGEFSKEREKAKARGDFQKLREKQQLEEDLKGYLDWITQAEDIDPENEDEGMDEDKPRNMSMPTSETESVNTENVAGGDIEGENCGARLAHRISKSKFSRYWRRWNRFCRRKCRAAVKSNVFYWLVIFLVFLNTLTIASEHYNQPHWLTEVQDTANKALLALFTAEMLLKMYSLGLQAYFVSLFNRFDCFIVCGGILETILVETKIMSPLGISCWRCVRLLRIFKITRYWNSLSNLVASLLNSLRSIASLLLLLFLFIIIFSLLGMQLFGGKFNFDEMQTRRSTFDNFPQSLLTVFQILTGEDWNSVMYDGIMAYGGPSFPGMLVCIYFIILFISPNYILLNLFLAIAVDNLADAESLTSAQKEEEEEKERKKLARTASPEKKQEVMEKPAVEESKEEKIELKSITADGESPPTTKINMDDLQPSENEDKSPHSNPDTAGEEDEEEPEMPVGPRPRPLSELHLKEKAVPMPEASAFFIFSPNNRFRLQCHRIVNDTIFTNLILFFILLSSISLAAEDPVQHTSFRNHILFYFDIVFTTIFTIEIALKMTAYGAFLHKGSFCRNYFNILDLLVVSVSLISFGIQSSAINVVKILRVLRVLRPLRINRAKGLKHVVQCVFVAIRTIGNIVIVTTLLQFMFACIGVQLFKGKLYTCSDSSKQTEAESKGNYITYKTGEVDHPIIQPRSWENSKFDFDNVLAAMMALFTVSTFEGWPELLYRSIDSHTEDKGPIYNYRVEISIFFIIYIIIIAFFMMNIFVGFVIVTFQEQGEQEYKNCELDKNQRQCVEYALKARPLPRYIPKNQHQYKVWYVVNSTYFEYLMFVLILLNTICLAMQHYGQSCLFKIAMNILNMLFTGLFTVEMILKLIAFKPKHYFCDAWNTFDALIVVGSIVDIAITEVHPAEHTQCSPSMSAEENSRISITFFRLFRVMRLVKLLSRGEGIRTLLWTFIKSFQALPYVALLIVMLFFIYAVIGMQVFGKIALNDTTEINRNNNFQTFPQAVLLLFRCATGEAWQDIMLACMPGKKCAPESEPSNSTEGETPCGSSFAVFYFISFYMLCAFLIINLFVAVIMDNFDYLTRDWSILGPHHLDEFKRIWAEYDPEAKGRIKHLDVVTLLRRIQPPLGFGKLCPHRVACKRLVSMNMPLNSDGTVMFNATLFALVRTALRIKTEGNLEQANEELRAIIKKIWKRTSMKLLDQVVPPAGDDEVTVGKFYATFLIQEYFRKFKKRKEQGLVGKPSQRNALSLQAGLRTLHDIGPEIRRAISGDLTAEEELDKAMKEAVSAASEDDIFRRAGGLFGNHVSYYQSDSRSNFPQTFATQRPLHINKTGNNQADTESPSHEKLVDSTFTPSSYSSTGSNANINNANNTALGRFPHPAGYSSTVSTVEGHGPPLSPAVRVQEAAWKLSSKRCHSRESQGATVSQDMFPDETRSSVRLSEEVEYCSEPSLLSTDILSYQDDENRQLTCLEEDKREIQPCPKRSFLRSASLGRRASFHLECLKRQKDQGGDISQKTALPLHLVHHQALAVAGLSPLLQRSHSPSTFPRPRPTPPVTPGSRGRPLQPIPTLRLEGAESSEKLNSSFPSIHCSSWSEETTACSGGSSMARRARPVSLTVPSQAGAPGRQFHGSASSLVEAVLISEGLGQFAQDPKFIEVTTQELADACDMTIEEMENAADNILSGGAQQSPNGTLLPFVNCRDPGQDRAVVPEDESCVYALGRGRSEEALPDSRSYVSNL
Sequence (P54290 25-944 partner limits assumed): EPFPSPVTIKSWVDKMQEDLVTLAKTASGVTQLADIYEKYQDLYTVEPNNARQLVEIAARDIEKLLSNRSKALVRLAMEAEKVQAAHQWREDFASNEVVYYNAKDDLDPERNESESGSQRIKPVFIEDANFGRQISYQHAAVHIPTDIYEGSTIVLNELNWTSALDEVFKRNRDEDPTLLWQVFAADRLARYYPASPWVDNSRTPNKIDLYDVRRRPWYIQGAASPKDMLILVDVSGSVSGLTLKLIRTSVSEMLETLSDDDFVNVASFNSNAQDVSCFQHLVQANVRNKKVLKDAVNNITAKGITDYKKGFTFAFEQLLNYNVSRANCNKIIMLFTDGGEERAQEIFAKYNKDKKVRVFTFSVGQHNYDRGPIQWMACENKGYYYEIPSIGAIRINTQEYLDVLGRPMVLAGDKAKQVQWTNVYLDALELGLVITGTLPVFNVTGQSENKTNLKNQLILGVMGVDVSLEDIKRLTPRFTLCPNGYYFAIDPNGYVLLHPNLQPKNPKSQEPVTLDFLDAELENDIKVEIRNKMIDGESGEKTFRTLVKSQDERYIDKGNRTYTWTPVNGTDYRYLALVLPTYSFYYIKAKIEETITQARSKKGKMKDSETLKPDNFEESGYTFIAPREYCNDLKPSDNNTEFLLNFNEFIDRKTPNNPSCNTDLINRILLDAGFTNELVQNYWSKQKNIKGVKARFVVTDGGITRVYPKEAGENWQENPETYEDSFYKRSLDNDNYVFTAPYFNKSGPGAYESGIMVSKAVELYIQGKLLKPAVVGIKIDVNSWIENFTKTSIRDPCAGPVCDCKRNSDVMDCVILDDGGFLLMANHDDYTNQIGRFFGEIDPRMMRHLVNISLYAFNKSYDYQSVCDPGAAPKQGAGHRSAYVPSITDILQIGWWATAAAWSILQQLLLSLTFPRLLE
Sequence (P54290 945-1091 partner limits assumed): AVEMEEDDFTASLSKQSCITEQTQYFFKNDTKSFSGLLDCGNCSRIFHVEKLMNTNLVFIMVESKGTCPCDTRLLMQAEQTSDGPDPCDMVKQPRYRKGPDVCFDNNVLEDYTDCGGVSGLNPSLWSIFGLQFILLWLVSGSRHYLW
Where a name gives a salt, the structure may show the parent alone.
QUANTITY KIND: Kb (nM)

MOLECULE	MEASURED TARGET	QUANTITY KIND	ENDPOINT RESULT
COC(=O)C1=C(C)NC(C)=C(C(=O)OCCCNCC(O)COc2ccc(F)cc2C)C1c1cccc([N+](=O)[O-])c1 (stereo not drawn) [Example 42]	rat dorsal aorta (Rattus norvegicus, UniProt P22002)	Kb	3.98
COC(=O)C1=C(C)NC(C)=C(C(=O)OCCNC(=S)NCCNCC(O)COc2ccccc2C)C1c1cccc([N+](=O)[O-])c1 (stereo not drawn) [Example 46]	rat dorsal aorta (Rattus norvegicus, UniProt P22002)	Kb	251
CCOC(=O)C1=C(C)NC(C)=C(C(=O)OCCc2ccc(OCC(O)CNC(C)C)cc2)C1c1cccc([N+](=O)[O-])c1 (stereo not drawn) [Example 54, Hydrochloride Hydrate]	rat dorsal aorta (Rattus norvegicus, UniProt P22002)	Kb	12.6
CCC1=C(C(=O)OCC(C)(C)NCC(O)COc2ccccc2C#N)C(c2cccc([N+](=O)[O-])c2)C(C(=O)OC)=C(C)N1 (stereo not drawn) [Example 30]	rat dorsal aorta (Rattus norvegicus, UniProt P22002)	Kb	3.98
CCOC(=O)C1=C(C)NC(C)=C(C(=O)OCCc2ccc(OCC(O)CNC(C)(C)C)cc2)C1c1cccc([N+](=O)[O-])c1 (stereo not drawn) [Example 55, Hydrochloride Hemihydrate]	rat dorsal aorta (Rattus norvegicus, UniProt P22002)	Kb	12.6
